Tested on: Coprococcus comes
method: growth AUC relative to DMSO control (median of replicates) (fraction); higher = more growth (less inhibition), active = hit call of the paper
study-conditions: 20 µM; 24 h
Entries and their growth AUC
measurement-type: growth AUC

# compound, measurement-type, value-measured
data = [
    ("N#Cc1cc(Cl)c(O)c(Cl)c1", "growth AUC", 1.02),
    ("Nc1ccc(O)cc1", "growth AUC", 1.01),
    ("COC(=O)c1ccccc1S(=O)(=O)NC(=O)n1nc(OCC(C)O)n(C)c1=O (stereo not drawn)", "growth AUC", 0.991),
]

* * *

# key: entry, value: growth AUC
Test system: Akkermansia muciniphila
method: growth AUC relative to DMSO control (median of replicates) (fraction); higher = more growth (less inhibition), active = hit call of the paper
study-conditions: 20 µM; 24 h

# molecule, growth AUC
rows = [
    ("O=S(Cc1ccc(Cl)cc1)c1ccc(Cl)cc1 (centres undefined)", "0.934 (inactive)"),
    ("c1ccc(Sc2ccccc2)cc1", "1.03 (inactive)"),
    ("CON(C(=O)c1cc(C)oc1C)C1CCCCC1", "0.96 (inactive)"),
    ("CCOC(=O)C1=NOC(c2ccccc2)(c2ccccc2)C1", "0.86 (inactive)"),
    ("Cc1cc(C)cc(O)c1", "0.865 (inactive)"),
    ("Cc1[nH]oc(=O)c1N=Nc1ccccc1Cl", "0.935 (inactive)"),
    ("COc1nc(N)nc(NC(C)(C)C)n1", "1.01 (inactive)"),
    ("CC(C)(c1ccc(O)cc1)c1ccc(O)cc1", "1.01 (inactive)"),
    ("O=C1NCCN1", "1.15 (inactive)"),
    ("C=CCc1ccc(O)c(OC)c1", "0.933 (inactive)"),
    ("CCOC(=O)c1cnn(C)c1S(=O)(=O)NC(=O)Nc1nc(OC)cc(OC)n1", "1.08 (inactive)"),
    ("Oc1ccc2ccccc2c1N=Nc1ccccc1", "1 (inactive)"),
    ("CN(C)C(=O)Nc1cc(C(C)(C)C)on1", "0.918 (inactive)"),
    ("CC1=C(c2ccccc2)C(=O)N(C(C)(C)c2cc(Cl)cc(Cl)c2)CO1", "1.11 (inactive)"),
    ("O=C1NCC[n+]2ccccc21.[Br-]", "1.13 (inactive)"),
    ("O=C(O)CNC(=O)c1cnccc1C(F)(F)F", "1.02 (inactive)"),
    ("CCCCCC(C)OC(=O)COc1ccc(Cl)c2cccnc12 (centres undefined)", "1.01 (inactive)"),
    ("CSC(=O)c1cccc2nnsc12", "0.851 (inactive)"),
    ("O=C(O)Cc1c[nH]c2ccccc12", "0.904 (inactive)"),
    ("CSc1nc(NC2CC2)nc(NC(C)(C)C)n1", "0.845 (inactive)"),
    ("CN(C)C=O", "1.08 (inactive)"),
    ("CCCCOC(=O)C(C)Oc1ccc(Oc2ccc(C(F)(F)F)cn2)cc1 (centres undefined)", "1.13 (inactive)"),
    ("CC(C)(NC(=O)C(Br)C(C)(C)C)c1ccccc1 (centres undefined)", "0.896 (inactive)"),
    ("CCc1cc(C(=O)O)cc(CC)c1C1C(=O)N2CCOCCN2C1=O", "1.02 (inactive)"),
    ("CCN(CC)C(=O)c1cccc(C)c1", "1.03 (inactive)"),
    ("CCCN(CCC)C(=O)SCC", "0.884 (inactive)"),
    ("COc1cc(OC)nc(Sc2cccc3c2C(=O)OC3C)n1 (centres undefined)", "0.871 (inactive)"),
    ("ClC=C(c1ccc(Cl)cc1)c1ccc(Cl)cc1", "1.05 (inactive)"),
    ("COC(=O)C(C)Oc1ccc(Oc2ccc(C(F)(F)F)cn2)cc1 (centres undefined)", "1.14 (inactive)"),
    ("Cc1c(C(=O)c2c[nH]n(C)c2=O)ccc(S(C)(=O)=O)c1C1=NOCC1", "0.937 (inactive)"),
    ("Cc1cc(N(C)C)nc(Cl)n1", "0.999 (inactive)"),
    ("S=C([S-])NCCNC(=S)[S-].S=C([S-])NCCNC(=S)[S-].[Mn+2].[Zn+2]", "0.974 (inactive)"),
    ("CCN(Cc1c(F)cccc1Cl)c1c([N+](=O)[O-])cc(C(F)(F)F)cc1[N+](=O)[O-]", "0.852 (inactive)"),
    ("O=C(Nc1ccc(F)cc1-c1ccc(Cl)c(Cl)c1)c1cn[nH]c1C(F)F", "1.02 (inactive)"),
]

Provenance of the data: the supplement of paper PMC12669032
